Listing of recorded inhibition by entry.
Target: Steryl-sulfatase (Homo sapiens)
Experiment: In vitro inhibition of Estrone Sulfatase in intact MCF-7 breast cancer cells at a concentration of 1.0 uM.
Type: cell-based
Conditions: MCF7
Kindly provide the numeric value in % only, without the unit symbol.

Take a look at these entries with their results.
molecular_string=NS(=O)(=O)Oc1ccc2c(c1)CCCC2=O unit=% test_result=11.7
molecular_string=NS(=O)(=O)Oc1ccc2c(c1)CCCC2 unit=% test_result=56.7
molecular_string=Cc1cc(=O)oc2ccc(OS(N)(=O)=O)cc12 unit=% test_result=17.4
molecular_string=Cc1c(C)c2ccc(OS(N)(=O)=O)c(C)c2oc1=O unit=% test_result=46.4
molecular_string=NS(=O)(=O)Oc1ccc2c(c1)C(=O)CCC2 unit=% test_result=47.8
molecular_string=NS(=O)(=O)Oc1ccc2c(C(F)(F)F)cc(=O)oc2c1 unit=% test_result=28.3
molecular_string=NS(=O)(=O)Oc1ccc2c(c1)C(=O)CC2 unit=% test_result=91
molecular_string=NS(=O)(=O)Oc1ccc2c(c1)OCC=C2 unit=% test_result=68.2

Exercise: Output measured inhibition for this item: NS(=O)(=O)Oc1ccc2c(c1)CCC=C2
Key: 60.6

Exercise: Output measured inhibition for this item: COc1cc2ccc(=O)oc2cc1OS(N)(=O)=O
Key: 34.1

Exercise: Supply measured inhibition of Cc1cc(=O)oc2cc(OS(N)(=O)=O)ccc12 in your reply.
Key: 85.6

---

Target: Steryl-sulfatase (Homo sapiens)
Sequence (whole entry): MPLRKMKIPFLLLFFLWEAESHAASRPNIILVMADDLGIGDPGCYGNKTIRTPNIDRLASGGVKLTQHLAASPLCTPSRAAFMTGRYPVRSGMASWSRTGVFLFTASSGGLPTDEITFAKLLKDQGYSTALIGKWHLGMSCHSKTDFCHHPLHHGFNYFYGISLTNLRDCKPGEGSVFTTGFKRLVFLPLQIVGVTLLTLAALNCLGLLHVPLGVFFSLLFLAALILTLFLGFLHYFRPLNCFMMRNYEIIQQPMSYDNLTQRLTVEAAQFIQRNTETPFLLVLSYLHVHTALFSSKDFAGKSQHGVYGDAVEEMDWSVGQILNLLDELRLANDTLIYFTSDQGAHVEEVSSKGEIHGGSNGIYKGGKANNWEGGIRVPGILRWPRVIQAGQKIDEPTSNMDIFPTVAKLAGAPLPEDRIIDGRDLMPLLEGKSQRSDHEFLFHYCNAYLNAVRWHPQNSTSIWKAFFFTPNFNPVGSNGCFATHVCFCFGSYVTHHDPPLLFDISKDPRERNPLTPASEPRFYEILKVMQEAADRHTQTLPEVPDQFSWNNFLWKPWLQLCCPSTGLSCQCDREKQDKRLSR
Test: In vitro inhibition of Estrone Sulfatase in intact MCF-7 breast cancer cells at a concentration of 10 uM.
Format: cell-based
Details: MCF7
PROPERTY MEASURED: inhibition (%)
Please give a number only; it is taken to be in %.

molecule=NS(=O)(=O)Oc1cccc2c1CCC2=O property_measured=inhibition test_result=74.1

Exercise: Supply measured inhibition of NS(=O)(=O)Oc1ccc2c(c1)CCCC2 in your reply.
Key: 78.8

Exercise: Name the recorded inhibition of the item Cc1cc(=O)oc2ccc(OS(N)(=O)=O)cc12 in your answer.
Key: 39.1

Exercise: Please report inhibition for the following molecule: NS(=O)(=O)Oc1ccc2ccc(=O)oc2c1
Key: 90.4

Exercise: Give inhibition for NS(=O)(=O)Oc1ccc2c(c1)OCC=C2
Key: 99.3

Exercise: Please indicate inhibition recorded for Cc1c(C)c2ccc(OS(N)(=O)=O)c(C)c2oc1=O
Key: 75.1

Exercise: For CC1CC(=O)Oc2cc(OS(N)(=O)=O)ccc21 (stereo not drawn) , write its inhibition.
Key: 32.3

Exercise: Specify measured inhibition for NS(=O)(=O)Oc1ccc2c(c1)CCCC2=O .
Key: 78.1

Exercise: Assign inhibition to the following record: NS(=O)(=O)Oc1ccc2c(c1)CCC2=O
Key: 71.3

Exercise: Consider the molecule NS(=O)(=O)Oc1ccc2c(c1)C(=O)CC2 and give its recorded inhibition.
Key: 99

Exercise: Please indicate inhibition recorded for NS(=O)(=O)Oc1ccc2c(c1)C(=O)CCC2
Key: 93.5

Exercise: In one line, give reported inhibition of the entry Cc1cc(=O)oc2cc(OS(N)(=O)=O)c(OS(N)(=O)=O)cc12 .
Key: 31.2

Exercise: # return recorded inhibition for input NS(=O)(=O)Oc1ccc2c(c1)CCC=C2
Key: 76.2
